- TESTED_TARGET: human GPR119 (Homo sapiens, UniProt Q8TDV5)
- Sequence (Q8TDV5 whole entry): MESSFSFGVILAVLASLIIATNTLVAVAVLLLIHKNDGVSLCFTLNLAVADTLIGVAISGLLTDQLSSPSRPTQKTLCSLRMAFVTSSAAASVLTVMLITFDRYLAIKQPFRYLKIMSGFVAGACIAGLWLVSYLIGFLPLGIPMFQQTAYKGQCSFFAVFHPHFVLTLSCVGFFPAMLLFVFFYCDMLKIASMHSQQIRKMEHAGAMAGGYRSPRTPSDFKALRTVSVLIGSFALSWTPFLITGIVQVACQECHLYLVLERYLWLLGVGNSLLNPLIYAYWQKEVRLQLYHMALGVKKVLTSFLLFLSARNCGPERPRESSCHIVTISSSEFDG
- ASSAY_EXPLANATION: Functional cellular assay measuring GPR119-mediated cAMP release (HTRF) in HEK-293 cells stably expressing recombinant human GPR119
- SETUP_CONDITIONS: cAMP response, cell line expressing human GPR119, 30 minutes at room temperature
pEC50: −log10 of the molar value.
Label satisfied for high-side pEC50 (at or above 7) and not satisfied for low-side pEC50 (below it).

Task: Could you tell me if the measured pEC50 of CCCN1Cc2ccc(N3CC[C@@H](Oc4ccc(OCC5CC5)nc4)C3=O)cc2C1=O reaches 7 or more?
Output: not satisfied

Task: Now try CCOC(=O)CN1Cc2ccc(N3CC[C@@H](Oc4ccc(OCC(F)(F)F)nc4)C3=O)cc2C1=O .
Output: satisfied

Task: Now try CN(C)C(=O)CN1Cc2ccc(N3CC[C@@H](Oc4ccc(C(=O)N5CCCC5)cc4)C3=O)cc2C1=O .
Output: not satisfied

Task: Now try COC(=O)CN1Cc2c(F)cc(N3CC[C@@H](Oc4ccc(OCCC5CC5)nc4)C3=O)cc2C1=O .
Output: satisfied

Task: Now try O=C(CN1Cc2ccc(N3CC[C@@H](Oc4ccc(OCC5CC5)nc4)C3=O)cc2C1=O)N1CCC(O)CC1 .
Output: not satisfied

Task: Now try O=C(CN1Cc2ccc(N3CC[C@@H](Oc4ccc(OCC(F)(F)F)nc4)C3=O)cc2C1=O)N1CCC1 .
Output: satisfied

Task: Now try CN(C)C(=O)CN1Cc2ccc(N3CC[C@@H](Oc4ccc(-n5cnnn5)cc4)C3=O)cc2C1=O .
Output: not satisfied

Task: Now try CC(C)N1Cc2c(F)cc(N3CC[C@@H](Oc4ccc(OCCC5CC5)nc4)C3=O)cc2C1=O .
Output: not satisfied

Task: Now try CN(C)C(=O)CN1C(=O)c2cc(N3CC[C@@H](Oc4ccc(OCC5CC5)nc4)C3=O)ccc2C1(C)C .
Output: not satisfied

Task: Now try C[S+]([O-])CN1Cc2ncc(N3CC[C@@H](Oc4ccc(C(=O)C5CC5)nc4)C3=O)cc2C1=O (some centres unmarked) .
Output: not satisfied

Task: Now try C[S+]([O-])CN1Cc2ncc(N3CC[C@@H](Oc4ccc(C(=O)C5CC5)cc4)C3=O)cc2C1=O (some centres unmarked) .
Output: not satisfied

Task: Now try CN(C)C(=O)CN1Cc2c(F)cc(N3CC[C@@H](Oc4ccc(OCCC5CC5)nc4)C3=O)cc2C1=O .
Output: satisfied

Task: Now try CC1(C(=O)c2ccc(O[C@@H]3CCN(c4ccc5c(c4)C(=O)N(CC(N)=O)C5)C3=O)cc2)CC1 .
Output: not satisfied

Task: Now try CC1c2ccc(N3CC[C@@H](Oc4ccc(OCC5CC5)nc4)C3=O)cc2C(=O)N1CC(=O)O (some centres unmarked) .
Output: not satisfied

Task: Now try CCOc1ccc(O[C@@H]2CCN(c3cc(F)c4c(c3)C(=O)N(CC(=O)N3CCCC3)C4)C2=O)cn1 .
Output: not satisfied

Task: Now try CSCN1Cc2ccc(N3CC[C@@H](Oc4ccc(OCC5CC5)nc4)C3=O)cc2C1=O .
Output: satisfied

Task: Now try O=C(CN1Cc2ccc(N3CC[C@@H](Oc4ccc(OCC5CC5)nc4)C3=O)cc2C1=O)NC[C@H](O)CO .
Output: not satisfied

Task: Now try CCOC(=O)CCc1cc(O[C@@H]2CCN(c3ccc4c(c3)C(=O)N(CC(=O)N(C)C)C4)C2=O)ccc1Cl .
Output: not satisfied

Task: Now try CN(C)C(=O)CN1Cc2ccc(N3CC[C@@H](Oc4ccc(C(=O)CCC(F)(F)F)cc4)C3=O)cc2C1=O .
Output: satisfied
